experiment: Mouse snapshot 5 h PK study; assay type: in vivo; conditions: female, CD-1, mouse, plasma, po, 25 mg/kg

- smi: "O=C(NNC(=O)c1cc2cc(Cl)cc(Cl)c2s1)c1ccc([N+](=O)[O-])o1"
  AUC(0-t) [ng·h/mL]: 43800
- smi: "O=C(NNC(=O)c1cc2cc(C(F)(F)F)cc(Cl)c2s1)c1ccc([N+](=O)[O-])o1"
  AUC(0-t) [ng·h/mL]: 111000
